Biological target: UniProt:O14746
Sequence (O14746 whole entry): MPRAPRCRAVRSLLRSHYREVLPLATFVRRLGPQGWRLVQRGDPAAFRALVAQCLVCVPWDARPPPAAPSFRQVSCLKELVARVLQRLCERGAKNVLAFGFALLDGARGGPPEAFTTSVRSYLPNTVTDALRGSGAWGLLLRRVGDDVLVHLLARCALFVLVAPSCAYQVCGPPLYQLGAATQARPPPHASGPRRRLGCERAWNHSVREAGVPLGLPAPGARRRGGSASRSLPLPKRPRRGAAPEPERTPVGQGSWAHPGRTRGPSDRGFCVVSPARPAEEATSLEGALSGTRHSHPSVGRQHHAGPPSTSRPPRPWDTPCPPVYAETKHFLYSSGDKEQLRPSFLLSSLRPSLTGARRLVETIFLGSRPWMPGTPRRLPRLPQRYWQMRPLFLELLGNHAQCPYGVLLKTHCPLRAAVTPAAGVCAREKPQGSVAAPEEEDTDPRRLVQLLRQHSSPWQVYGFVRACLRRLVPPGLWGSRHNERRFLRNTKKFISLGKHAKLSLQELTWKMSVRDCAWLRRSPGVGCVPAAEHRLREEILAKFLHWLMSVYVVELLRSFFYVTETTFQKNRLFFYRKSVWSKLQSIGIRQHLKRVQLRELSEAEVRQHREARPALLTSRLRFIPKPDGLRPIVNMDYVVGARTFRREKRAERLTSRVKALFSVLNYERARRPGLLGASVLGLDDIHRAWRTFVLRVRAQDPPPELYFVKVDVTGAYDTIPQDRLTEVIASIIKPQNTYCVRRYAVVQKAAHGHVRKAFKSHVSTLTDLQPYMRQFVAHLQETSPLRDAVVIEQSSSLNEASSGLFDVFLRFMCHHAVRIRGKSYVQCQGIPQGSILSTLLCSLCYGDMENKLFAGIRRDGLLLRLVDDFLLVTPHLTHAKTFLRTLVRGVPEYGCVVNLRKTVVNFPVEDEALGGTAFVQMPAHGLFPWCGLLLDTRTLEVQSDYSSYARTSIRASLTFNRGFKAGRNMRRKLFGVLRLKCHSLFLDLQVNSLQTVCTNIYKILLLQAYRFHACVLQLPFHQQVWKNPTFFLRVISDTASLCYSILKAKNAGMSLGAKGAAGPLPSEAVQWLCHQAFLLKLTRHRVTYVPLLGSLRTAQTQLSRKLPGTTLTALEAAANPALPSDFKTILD
Assay: Inhibition of Homo sapiens (human) telomerase
Measured logIC50 values are reported for all entries that follow.

# smiles_representation, logIC50
measured = [
    ("O=C(O)CCCCCCCCCCCNC(=O)Cc1cn(CCCOc2ccccc2)c2ccccc12", 1.51),
    ("Cc1c2n(c3ccccc13)CCCn1c-2c(CC(=O)NCCCCCCCCCCCC(=O)O)c2ccccc21", 1.91),
    ("Cc1cn(CCCn2cc(CC(=O)NCCCCCCCCCCCC(=O)O)c3ccccc32)c2ccccc12", 1.3),
    ("O=C(O)CCCCCCCCCCCNC(=O)Cc1cn(CCn2ccc3ccccc32)c2ccccc12", 1.61),
    ("O=C(O)CCCCCCCCCCCNC(=O)Cc1cn(CCOc2cccc3ccccc23)c2ccccc12", 1.54),
    ("O=C(O)CCCCCCCCCCCNC(=O)Cc1cn(CCCOC2CCCCC2)c2ccccc12", 1.83),
    ("O=C(O)CCCCCCCCCCCNC(=O)Cc1cn(CCCn2ccc3ccccc32)c2ccccc12", 1.96),
]

====

Molecular target: Telomerase reverse transcriptase (Homo sapiens)
Test: Inhibition of telomerase in Homo sapiens (human) A549 cells after 24 hr by TRAP assay
Assay type: cell-based
Measured logIC50 values are reported for all entries that follow.

# smiles_representation, logIC50
rows = [
    ("O=C(CCN1CCCCC1)Nc1ccc2c(c1)C(=O)c1ccc(NC(=O)CCN3CCCCC3)cc1C2=O", 0.65),
    ("O=C(CCN1CCCCCC1)Nc1ccc2c(c1)C(=O)c1ccc(NC(=O)CCN3CCCCCC3)cc1C2=O", 1.11),
    ("O=C(CCN1CCCC1)Nc1ccc2c(c1)C(=O)c1ccc(NC(=O)CCN3CCCC3)cc1C2=O", 0.25),
    ("O=C(CCN1CCCCC1)Nc1ccc2cc3ccc(NC(=O)CCN4CCCCC4)cc3nc2c1", 0.45),
    ("O=C(CCN1CCCC1)Nc1ccc2cc3ccc(NC(=O)CCN4CCCC4)cc3nc2c1", 0.72),
    ("O=C(CCN1CCCCCC1)Nc1ccc2cc3ccc(NC(=O)CCN4CCCCCC4)cc3nc2c1", 0.49),
]

====

Measured logIC50 values are reported for all entries that follow.
Target: Telomerase reverse transcriptase (Homo sapiens)
Assay: Inhibition of telomerase (unknown origin)

# compound, logIC50
measured = [
    ("CN(C)CCC(=O)Nc1ccc2c(c1)C(=O)c1cc(NC(=O)CCN(C)C)ccc1-2", 1.21),
    ("CN(C)CCCNCc1ccc2nc3ccc4cc5cc(CNCCCN(C)C)ccc5nc4c3cc2c1", -1.55),
    ("CCC1CCCCN1CCC(=O)Nc1ccc2c(c1)C(=O)c1cc(NC(=O)CCN3CCCCC3CC)ccc1-2 (stereo unspecified)", 1.15),
    ("CCCNCc1ccc2nc3ccc4nc5ccc(CNCCC)cc5cc4c3cc2c1", 0),
    ("CCCNCc1ccc2nc3c(ccc4cc5cc(CNCCC)ccc5nc43)cc2c1", -0.3),
    ("CCN(CC)CCOc1ccc2c(c1)OC1C(=O)c3ccccc3C(=O)C21 (stereo unspecified)", 0.84),
    ("CC[N+](C)(CC)CCC(=O)Nc1ccc2c(c1)C(=O)c1cc(NC(=O)CC[N+](C)(CC)CC)ccc1-2", 1.4),
    ("CSc1nc(Nc2ccc3nc(C)cc(N(C)C)c3c2)nc(Nc2ccc3nc(C)cc(N(C)C)c3c2)n1", -1.39),
    ("C[N+](C)(C)CCC(=O)Nc1ccc2c(c1)C(=O)c1cc(NC(=O)CC[N+](C)(C)C)ccc1-2", 1.27),
    ("C[N+]1(CCC(=O)Nc2ccc3c(c2)C(=O)c2cc(NC(=O)CC[N+]4(C)CCCCC4CO)ccc2-3)CCCCC1CO (stereo unspecified)", 1.52),
    ("CCN1CCN(CCC(=O)Nc2ccc3c(c2)C(=O)c2cc(NC(=O)CCN4CCN(CC)CC4)ccc2-3)CC1", 1.23),
    ("CN(C)CCCNc1nc2ccccc2c2[nH]c3c4cc([N+](=O)[O-])ccc4ccc3c12", -0.3),
    ("CN1CCN(CCC(=O)Nc2ccc3c(c2)C(=O)c2cc(NC(=O)CCN4CCN(C)CC4)ccc2-3)CC1", 1.64),
    ("Cc1oc2nc1-c1nc(co1)-c1nc(co1)-c1nc(co1)-c1nc(co1)-c1nc(co1)C1=NC(CS1)c1nc-2c(C)o1 (stereo unspecified)", -2.3),
    ("COc1ccc2ccc3c([nH]c4c5ccccc5nc(NCCN(C)C)c34)c2c1", 0.1),
    ("COc1ccc2c(ccc3c2[nH]c2c4ccccc4nc(NCCCN(C)C)c32)c1", 0),
    ("CC1CCCCN1CCC(=O)Nc1ccc2c(c1)C(=O)c1cc(NC(=O)CCN3CCCCC3C)ccc1-2 (stereo unspecified)", 1.08),
    ("CN(C)CCCNCc1cc2nc3ccccc3cc2c2cc3ccccc3nc12", -0.12),
    ("O=C(CCN1CCCCC1CO)Nc1ccc2c(c1)C(=O)c1cc(NC(=O)CCN3CCCCC3CO)ccc1-2 (stereo unspecified)", 0.9),
    ("O=C(CCN1CCCCC1)Nc1ccc2c(c1)C(=O)c1cc(NC(=O)CCN3CCCCC3)ccc1-2", 0.95),
    ("C[N+](C)(C)c1ccc(Nc2nc(N)nc(Nc3ccc([N+](C)(C)C)cc3)n2)cc1", 0.84),
    ("c1ccc2nc3cc(CNCCN4CCCCC4)c4nc5ccccc5cc4c3cc2c1", 0.3),
    ("O=C(CCN1CCCCC1CCO)Nc1ccc2c(c1)C(=O)c1cc(NC(=O)CCN3CCCCC3CCO)ccc1-2 (stereo unspecified)", 1.22),
    ("CN(C)CCCNCc1ccc2nc3c(ccc4cc5cc(CNCCCN(C)C)ccc5nc43)cc2c1", -0.04),
    ("C[N+]1(CCC(=O)Nc2ccc3c(c2)C(=O)c2cc(NC(=O)CC[N+]4(C)CCCCC4)ccc2-3)CCCCC1", 1.32),
    ("O=C(CCN1CCC(O)CC1)Nc1ccc2c(c1)C(=O)c1cc(NC(=O)CCN3CCC(O)CC3)ccc1-2", 1.27),
]
